Overview of reported pKd across a group of binders:
- target-or-system: RSV prefusion F (preF, DS-Cav1) (Respiratory syncytial virus)
- experimental-protocol: BLI, IgG on sensor, 100 nM antigen
Friendly reminder that pKd comes from taking -log10 of the concentration in mol/L.

Observe how each entry below is paired with its result.
binder	reported-result
ADI-41340 (antibody, V domains shown) VH: QVQLVQSGAEVKTPGSSVKVSCKASGGTFRSYPITWVRQAPGQGLEWMGTVIPVFDTVNYAPKFQGRVSITADESTNTAYMELSSLRSDDSAVYYCARDLGWLRPMTTVTSPHFDYWGQGTLVTVSS VL: QSVLTQPASVSGSPGQSITISCTGTSSDVGGYDFVSWYQQHPGKAPKLMISEVTDRPSGVSNRFSGSKSGNTASLTISGLQAEDEADYYCTSYTSSRTYVFGTGTKLTVL	8.45
ADI-41318 (antibody, V domains shown) VH: EVQLLESGAEVKKPGSSVRVSCKAFGGTFSSYAFSWVRQAPGQGLEWMGGITPMFGTENYAPNFQGRVTITADKLTTTVYMELSRLRSEDSAVYYCAREGGRLGTTMGAFDMWGQGTMVTVSS VL: DIRLTQSPSSLSASVGDRVTITCRASHGISSALAWYQQRPGRVPQVLIFHASTLESGVPSRFSGSGSGTDFTLTISSLQPEDFATYYCQQFNSYPYTFGQGTKVEIK	6.37

# query: pKd of entry ADI-41243 (antibody, V domains shown) VH: QVQLVQSRAEVKKPGESLKISCKGSLHSFSNNWIGWVRQMPGKGLEWMGIIFPDDSDTRYSPSFQGQVTISADKSISTAYLQWSSLKASDTAIYYCGTVVTLIQGVADWGQGTLVTVSS VL: QPVLTQPHSVSESPGKTVTISCTRSSGSIDSSYVQWYQQRPGSSPTTVIYEDNLRPSGVPDRFSGSIDSSSNSASLTISGLKTEDEAEYYCQSYDSSNPVVFGGGTKLTVL
8.45

Values compiled from patent US20260258115A1.
